# measurement.notes: small-molecule binders of probe aInhba, primary screen, biochemical, small-molecule microarray, 635/667 nm fluorescence (AID 1148);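 note: score merges 667nm spot fluorescence with signal-to-noise for antibody binding to printed compounds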
# recorded.conditions: higher = more signal
Each entry gets Not satisfied if its composite z-score stays under -0.08, and Satisfied if its composite z-score is -0.08 or above.

INPUT: Check this molecule for composite z-score at or above -0.08: COCCCNC(=O)[C@@]1(C)c2ccccc2C(=O)N(Cc2ccc(OC(F)(F)F)cc2)[C@H]1c1ccc(CO)cc1
OUTPUT: Satisfied

INPUT: Check this molecule for composite z-score at or above -0.08: Cc1ccc(F)cc1S(=O)(=O)N[C@@H]1CCN(Cc2ccc(CC(C)C)cc2)C1
OUTPUT: Not satisfied

INPUT: Check this molecule for composite z-score at or above -0.08: Cc1ccc(C2CC=C(C(=O)O)CN2S(=O)(=O)c2ccc(C)cc2)cc1 (stereo not drawn)
OUTPUT: Satisfied

INPUT: Check this molecule for composite z-score at or above -0.08: C[N+](C)(C)CCCCCCNC(=O)[C@@H]1C[C@@H]2C(=O)N3CCC[C@H]3C(=O)N2[C@@H]1c1cccc(OCCO)c1
OUTPUT: Satisfied

INPUT: Check this molecule for composite z-score at or above -0.08: CCN1C(=O)[C@H]2[C@H]3[C@H](O)[C@H](O)CC(=NOC(C)CN4CCCCc5nc(C)c(C)cc54)[C@@H]3CC[C@H]2C1=O (stereo partly drawn)
OUTPUT: Satisfied

INPUT: Check this molecule for composite z-score at or above -0.08: COC(=O)[C@@]1(Cc2ccc(OC)cc2)[C@H]2c3cc(C(=O)N4CCCC4)n(Cc4cc(F)c(F)c(F)c4)c3C[C@H]2CN1C(=O)c1ccccc1
OUTPUT: Satisfied

====

# measurement.notes: basal HepG2 mitochondrial membrane potential changes, profiling panel, cell-based, JC-1 fluorescence, 24 h, 100 nL compound (AID 1167); note: test concentration not given here
# recorded.conditions: higher = more signal
So I've got a bunch of molecules here, and I need their z-score values.
Respond using a number only.

INPUT: Entry under review: CC(C)CON=C1C[C@@H](O)[C@@H](O)[C@@H]2[C@@H]3C(=O)N(Cc4ccccc4)C(=O)[C@@H]3CC[C@@H]12 . Reported z-score?
OUTPUT: 0.173

INPUT: Entry under review: COC(=O)[C@@]1(Cc2ccccc2)[C@H]2c3cc(C(=O)N4CCCC4)n(Cc4ccccn4)c3C[C@H]2CN1C(=O)c1ccccc1 . Reported z-score?
OUTPUT: 1.06

INPUT: Entry under review: C[C@@H]1CC[C@H]2C(=O)O[C@H](COc3ccc(C(C)(C)C)cc3)CN2[C@H]1c1ccc(Br)cc1 . Reported z-score?
OUTPUT: -1.12

INPUT: Entry under review: COC(=O)C1=CCC(c2cccc(Cl)c2)O1 (stereo not drawn) . Reported z-score?
OUTPUT: -0.549

INPUT: Entry under review: CCCCc1nc2c(c3c1C[C@H](C)OC3)CN(CCC(C)C)CC2 . Reported z-score?
OUTPUT: 2.01

INPUT: Entry under review: O[C@@H](Cc1ccccc1)[C@H]1C2C=CCCC(c3ccccc3)=C2CN1Cc1cccc(Cl)c1 (stereo partly drawn) . Reported z-score?
OUTPUT: 0.514

INPUT: Entry under review: COc1ccc(-c2ccc3c(n2)CCCN3CC(O)CN2CCCc3nc(C)c(C)cc32)cc1 (stereo not drawn) . Reported z-score?
OUTPUT: 1.58

INPUT: Entry under review: CCOC(=O)[C@H](CC(C)C)NC(=O)CCC1CC(OC(=O)NCc2cccc3ccccc23)CC2(CCCC(COC(=O)NCCN3CCOCC3)O2)O1 (stereo partly drawn) . Reported z-score?
OUTPUT: -0.084

====

So I've got a bunch of compounds here, and I need their composite z-score values.
# measurement.notes: small-molecule microarray binders of probe aLefty2, primary screen, biochemical, biotinylated probe, 635/667 nm fluorescence (AID 1094);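 note: score merges spot fluorescence near 667 nm with spot signal-to-noise ratio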
# recorded.conditions: higher = more signal

INPUT: Entry under review: CCOC(=O)CCN1C(=O)[C@H]2[C@H]3[C@H](O)[C@H](O)CC(=NOC[C@@H](O)COCc4ccco4)[C@@H]3CC[C@H]2C1=O . Reported composite z-score?
OUTPUT: 0.0814

INPUT: Entry under review: CCOC(=O)[C@H](Cc1ccccc1)NC(=O)CCC1CC(OC(=O)NCc2ccc3c(c2)OCO3)CC2(CCCC(COC(=O)NCc3ccccc3)O2)O1 (stereo partly specified) . Reported composite z-score?
OUTPUT: -0.0174

INPUT: Entry under review: CC(C)=C1C(=O)C(c2ccccc2)=C2CN3C(=O)N(CCc4ccccc4)C(=O)[C@]3(Cc3ccc(F)cc3)[C@H]21 . Reported composite z-score?
OUTPUT: 0.253

INPUT: Entry under review: CN1C(=O)C2C=CC(C(O)c3ccc(Br)cc3)N(N(c3ccccc3)c3ccccc3)C2C1=O (stereo unspecified) . Reported composite z-score?
OUTPUT: 0.238

INPUT: Entry under review: CCOC(=O)C[C@H]1[C@H](OC(=O)c2cc3ccccc3oc2=O)[C@@H](NC(=O)c2ccc3ccccc3n2)c2cc(OCCCO)ccc2N1C(=O)c1ccccc1 . Reported composite z-score?
OUTPUT: -0.0171

INPUT: Entry under review: C=CCOC(=O)[C@H]1[C@@H]2C(=O)O[C@@H](c3ccccc3)[C@@H](c3ccccc3)N2[C@@H](c2ccc(OCCOC(=O)[C@H]3C[C@H]4C(=O)N5CCC[C@H]5C(=O)N4[C@H]3c3cccc(OCCO)c3)cc2)[C@]12C(=O)Nc1ccc(I)cc12 . Reported composite z-score?
OUTPUT: 1.35

====

# measurement.notes: basal RPMI8226 viability, no added stimulus, profiling panel, cell-based, calcein-AM fluorescence, 48 h, PK04 Diversity Set (AID 1166);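 note: cells grown under basal conditions without added stimulus; test concentration not given here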
# recorded.conditions: RPMI8226 myeloma viability, higher = more signal
observable: z-score

INPUT: Entry under review: CC(CCN1CCc2nc(-c3ccccc3)c(-c3ccccc3)cc2C1)=NOC(C)CN1CCCCc2nc(C)c(C)cc21 (centres undefined) . Reported z-score?
OUTPUT: -0.19

INPUT: Entry under review: O=C1C[C@@H](O)[C@@H](O)[C@@H]2[C@@H]3C(=O)N(c4cccc(Oc5ccccc5)c4)C(=O)[C@@H]3CC[C@@H]12 . Reported z-score?
OUTPUT: -0.0677

INPUT: Entry under review: CCN1C(=O)[C@H]2[C@H]3[C@H](O)[C@H](O)CC(=NO[C@@H]4O[C@H](CO)[C@@H](O)[C@H](O)[C@H]4O)[C@@H]3CC[C@H]2C1=O . Reported z-score?
OUTPUT: 0.0072

INPUT: Entry under review: CC(C)c1ccc(NN2C(C(O)c3ccc4c(c3)OCO4)C=CC3C(=O)N(c4ccccc4)C(=O)C32)cc1 (centres undefined) . Reported z-score?
OUTPUT: -0.369

INPUT: Entry under review: COc1ccccc1CN1C(=O)c2ccccc2[C@@H](C(=O)NCC(F)(F)F)[C@@H]1c1ccc(CO)cc1 . Reported z-score?
OUTPUT: 1.04

INPUT: Entry under review: C=CCOC(=O)[C@H]1[C@@H]2C(=O)O[C@@H](c3ccccc3)[C@@H](c3ccccc3)N2[C@@H](c2ccc(OCCOC(=O)[C@H]3C[C@H]4C(=O)N5CCC[C@H]5C(=O)N4[C@H]3c3cccc(OCCO)c3)cc2)[C@]12C(=O)Nc1ccc(I)cc12 . Reported z-score?
OUTPUT: -0.452

INPUT: Entry under review: C[C@H]1CC[C@@H](C(=O)O)N[C@@H]1c1ccc(C#CCN(C)C)cc1 . Reported z-score?
OUTPUT: -0.338

INPUT: Entry under review: CO[C@H]([C@@H](C)[C@H](OC)c1ccccc1)[C@H](C)[C@@H](OC)[C@H](C)C(C)=O . Reported z-score?
OUTPUT: -0.345

INPUT: Entry under review: O=C1[C@H]2[C@H]3[C@H](O)[C@H](O)CC(=NOCc4ccccc4)[C@H]3CC[C@H]2C(=O)N1C[C@@H]1CCCO1 . Reported z-score?
OUTPUT: 0.422

====

# measurement.notes: splicing luciferase reporter signal modulators, primary screen, spliceosome inhibition project, cell-based, HEK293, splice +/- reporter (AID 1101);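 note: HEK293 cells carrying a splicing-competent luciferase reporter gene; test concentration not given here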
# recorded.conditions: luminescence, 24 h, higher = more signal, called active from +8 up or from −8 down
observable: z-score
Respond using a number only.

INPUT: Entry under review: C=CC[C@]1(C(=O)NCc2ccccc2)N=C(c2ccc(OCCCO)cc2)O[C@H]1c1ccccc1 . Reported z-score?
OUTPUT: 0.332

INPUT: Entry under review: CCCCCN1CC=CC23O[C@@H]4C=CCOC(=O)[C@@H]4[C@H]2C(=O)N(C(CO)C(C)C)[C@@H]3C1=O (some centres not stated) . Reported z-score?
OUTPUT: 0.253

INPUT: Entry under review: C#C[C@@H]1Oc2ccccc2S(=O)(=O)N2CCC[C@H]12 . Reported z-score?
OUTPUT: 0.712

INPUT: Entry under review: C=CCOC(=O)[C@H]1[C@@H]2C(=O)O[C@@H](c3ccccc3)[C@@H](c3ccccc3)N2[C@@H](c2ccc(OCCOC(=O)[C@H]3C[C@H]4C(=O)N[C@@H](Cc5ccccc5)C(=O)N4[C@H]3c3ccc(O)cc3)cc2)[C@]12C(=O)Nc1ccccc12 . Reported z-score?
OUTPUT: 0.72

INPUT: Entry under review: O=C1[C@H]2[C@H]3[C@H](O)[C@H](O)CC(=NOCc4ccccc4)[C@@H]3CC[C@H]2C(=O)N1C1CCCCC1 . Reported z-score?
OUTPUT: 0.568

INPUT: Entry under review: CCOC(=O)CCN1C(=O)[C@H]2[C@H]3[C@H](O)C=CC(=O)[C@@H]3CC[C@H]2C1=O . Reported z-score?
OUTPUT: -0.173

INPUT: Entry under review: CCOC(=O)[C@H](Cc1ccccc1)NC(=O)CCC1CC(OC(=O)NCc2ccc3c(c2)OCO3)CC2(CCCC(COC(=O)NCc3ccccc3)O2)O1 (some centres not stated) . Reported z-score?
OUTPUT: -1.03
